molecular target: human Claudin18.2 (human); test: cell-based or functional assay
For each of the binders below, state its CDC EC50.
Respond numerically; units are µg/mL and should not be typed.

Could you please provide reported CDC EC50 for 422E8F9 (antibody, V domains shown) VH: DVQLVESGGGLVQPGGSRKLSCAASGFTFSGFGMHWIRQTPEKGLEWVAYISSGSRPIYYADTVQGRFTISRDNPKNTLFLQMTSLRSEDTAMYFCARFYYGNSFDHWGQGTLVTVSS VL: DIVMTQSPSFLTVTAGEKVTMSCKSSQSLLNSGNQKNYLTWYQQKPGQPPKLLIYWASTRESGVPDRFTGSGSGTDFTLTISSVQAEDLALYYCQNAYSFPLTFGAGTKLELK ? Thanks! 2.14

Input 419B5G9 (antibody, V domains shown) VH: DVQLVESGGGLVQPGGSRKLSCAASGFTFSTFGMHWVRQAPEKGLEWVAYISGGSTTIFYADTVKGRFTISRDNPKNTLFLQMTSVRSEDTAMYYCARFYYGNSFAYWGPGTLVTVST VL: DIVMTQSPSSLTVTAGEKVTMSCKSSQSLLNSGNQKNYLTWYQQKPGQPPKMLIYWASTRESGVPDRFTGSGSGTDFTLTISSVQAEDLAVYYCQNAYSYPLTFGAGTKLELK , output reported CDC EC50. 0.494

Give recorded CDC EC50. 186G12H3 (antibody, V domains shown) VH: EVMLVESGGGLVKPGGSLKLSCAASRFTLSSYAMSWVRQTPEKRLEWVATISSGGSYTYYFDSVKGRFTISRDTAKNTLNLQMSSLRSEDTAMYYCARLYYGNALDYWGQGTSVTVSS VL: DIVMTQSPSSLTVTAGEKVTVSCKSSQSLLNSGNQKNYLTWYQQKPGQPPKLLIYWASTRESGVPDRFTGSGSGTDFTLTISSVQAEDLAVYYCQNNYIYPLTFGAGTTLELK 1.39
